reported.metric: pIC50
API: returns pIC50 as number; meaning -log10 of concentration in mol/L.

Field pIC50 (system: RAF proto-oncogene serine/threonine-protein kinase (Homo sapiens, UniProt P04049)) for entry CN1C[C@@H]2C[C@H]1CN2c1cc(F)c(-c2ccnc3c(-c4cccc5[nH]ncc45)c(-c4ccncc4)nn23)c(F)c1 = 8.07

---

assay: Half life in human liver microsomes
Assay type: ADME, Microsome
What half-life was measured for each of the following?

half-life recorded for this molecule, Fc1cc(N2C[C@@H]3C[C@H]2CN3C2CCC2)cc(F)c1-c1ccnc2c(-c3cccc4[nH]ncc34)c(-c3ccncc3)nn12 , is 3 min

half-life recorded for this molecule, CN1C[C@@H]2C[C@H]1CN2c1cc(F)c(-c2ccnc3c(-c4cccc5[nH]ncc45)c(-c4ccncc4)nn23)c(F)c1 , is > 30 min

half-life recorded for this molecule, CC(C)CN1C[C@@H]2C[C@H]1CN2c1cc(F)c(-c2ccnc3c(-c4cccc5[nH]ncc45)c(-c4ccncc4)nn23)c(F)c1 , is 3 min

half-life recorded for this molecule, CN1C[C@@H]2C[C@H]1CN2c1ccc(-c2ccnc3c(-c4cccc5[nH]ncc45)c(-c4ccncc4)nn23)c(F)c1 , is 17 min

half-life recorded for this molecule, CC(C)N1C[C@@H]2C[C@H]1CN2c1cc(F)c(-c2ccnc3c(-c4cccc5[nH]ncc45)c(-c4ccncc4)nn23)c(F)c1 , is 5 min

half-life recorded for this molecule, CCN1C[C@@H]2C[C@H]1CN2c1cc(F)c(-c2ccnc3c(-c4cccc5[nH]ncc45)c(-c4ccncc4)nn23)c(F)c1 , is 11 min
